molecular target: human PD-1 / PD-L1-Ig binding on Jurkat cell line over-expressing human PD-1 (Jurkat-PD-1) (Homo sapiens, UniProt Q15116); construct: expressed in transfected cells; host or cells: Jurkat; test: Jurkat-PD-1 Cell Binding High-Content Screening Assay (CBA); type: cell-based; conditions: Jurkat-PD-1 cells, PE-labeled PD-L1-Ig 20 nM final; read-out: Jurkat HPD1_PDL1 IC50
Sequence (Q15116 25-288): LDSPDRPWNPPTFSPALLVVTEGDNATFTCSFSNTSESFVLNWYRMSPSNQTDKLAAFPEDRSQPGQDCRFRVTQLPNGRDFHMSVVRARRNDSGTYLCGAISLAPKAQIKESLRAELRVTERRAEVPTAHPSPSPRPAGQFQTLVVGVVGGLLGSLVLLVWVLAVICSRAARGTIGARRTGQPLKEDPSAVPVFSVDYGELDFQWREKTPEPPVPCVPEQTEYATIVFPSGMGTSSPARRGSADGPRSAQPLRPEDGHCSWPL
Where a SMILES comes first, the peptide text is derived from it. Bridges are numbered along the chain shown (N, C = ends). [ ]: non-standard residue; d: D form. Bip = N[C@@H](Cc1ccc(-c2ccccc2)cc1)C(=O)O; Orn = NCCC[C@H](N)C(=O)O; Dab = NCC[C@H](N)C(=O)O; Dap = NC[C@H](N)C(=O)O
experimentalEndpoint: pIC50
Quick note: pIC50 means taking -log10 of the concentration in moles per liter.

As a guide, the following entries are already answered.
- compound: "CCCC[C@H]1NC(=O)[C@H](CCCN)NC(=O)[C@H]([C@@H](C)CC)NC(=O)[C@H](Cc2ccc(-c3ccccc3)cc2)NC(=O)[C@H](C(C)C)NC(=O)[C@H](Cc2c[nH]c3ccccc23)NC(=O)[C@H](CC(=O)O)NC(=O)[C@H](Cc2ccc(C(=O)O)cc2)NC(=O)[C@H](Cc2ccc(OCC(=O)O)cc2)NC(=O)CSC[C@@H](C(=O)N[C@@H](C)C(N)=O)NC(=O)[C@H]([C@@H](C)O)NC(=O)[C@H](C(C)C)NC(=O)[C@H](CC2CCCCC2)NC(=O)[C@H](CCN)NC1=O"
  reportedResult: 7.73
- compound: "Cc1cccc(C[C@@H]2NC(=O)[C@H](CC(=O)O)NC(=O)[C@H](Cc3ccc(OCC(=O)O)cc3)NC(=O)[C@H](Cc3ccncc3)NC(=O)CSC[C@@H](C(=O)N[C@@H](CCN)C(N)=O)NC(=O)[C@H](CO)NC(=O)[C@H](C(C)(C)O)NC(=O)[C@H](CC3CCCCC3)NC(=O)[C@H](CCN)NC(=O)[C@@H](CC(C)C)NC(=O)C(C3CCNCC3)NC(=O)[C@H](Cc3ccc(OCC(=O)O)cc3)NC(=O)[C@H](Cc3ccc(-c4ccccc4)cc3)NC(=O)[C@H](Cc3ccc(OCC(=O)O)cc3)NC2=O)c1 (mixture of isomers) [Compound 2084]"
  reportedResult: 6.68
- compound: "CC[C@H](C)[C@@H]1NC(=O)[C@H](Cc2ccc(-c3ccccc3)cc2)NC(=O)[C@H](C(C)C)NC(=O)[C@H](Cc2c[nH]c3ccccc23)NC(=O)[C@H](CC(=O)O)NC(=O)[C@H](Cc2ccc(O)cc2)NC(=O)[C@H](CC(N)=O)NC(=O)CSC[C@@H](C(=O)NCC(N)=O)NC(=O)[C@H](CO)NC(=O)[C@H](C(C)C)NC(=O)[C@H](CC(C)C)NC(=O)[C@H](CCN)NC(=O)[C@@H](CC(C)C)NC(=O)[C@H](CCCN)NC1=O [Compound 1121] ({CH2CO}-NYDWV[Bip]I[Orn][dL][Dab]LVSCG-NH2; thioether N-14)"
  reportedResult: 7.68

# input for lookup
Please report the measured pIC50 for CC(C)C[C@@H]1NC(=O)[C@H](Cc2c[nH]c3ccccc23)NC(=O)[C@H](CC(=O)O)NC(=O)[C@H](Cc2ccc(O)cc2)NC(=O)[C@H](Cc2ccccc2)NC(=O)CSC[C@@H](C(=O)N[C@@H](C)C(N)=O)NC(=O)[C@H](CO)NC(=O)[C@H](C(C)C)NC(=O)[C@H](CC(C)C)NC(=O)[C@H](CCN)NC(=O)[C@@H](C)NC(=O)[C@H](CN)NC(=O)[C@H](C(C)C)NC(=O)[C@H](Cc2ccc(-c3ccccc3)cc2)NC1=O [Compound 1079] ({CH2CO}-FYDWL[Bip]V[Dap][dA][Dab]LVSCA-NH2; thioether N-14) 7.53
